These measurements were taken from patent US20260035376A1.

target: Avi-KRAS G12D (1-169) GppNHp/RAF1 RBD-3×FLAG (52-151) (Homo sapiens, UniProt P01116, G12D); construct: 50 nM Avi-KRAS G12D (1-169) GppNHp/RAF1 RBD-3×FLAG (52-151); assay: Disrupting RAS-effector binding HTRF assay, Raf1 RBD-KRAS G12D-GppNHp; conditions: PPI HTRF, 50 nM Avi-KRAS G12D GppNHp, compound titration 30-0.0045 μM; read-out: Raf1 RBD-KRAS G12D-GppNHp disruption
Sequence (P01116 1-169 isoform P01116-2 G12D limits assumed): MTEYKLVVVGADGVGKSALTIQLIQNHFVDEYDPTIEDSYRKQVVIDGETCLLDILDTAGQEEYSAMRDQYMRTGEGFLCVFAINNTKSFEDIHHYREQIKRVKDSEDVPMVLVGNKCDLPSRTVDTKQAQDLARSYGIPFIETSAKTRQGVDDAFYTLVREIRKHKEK
Measure: IC50

Check out these entries, answers already filled in.
- Compound Smiles: "N#Cc1c(N)sc2c(F)ccc(-c3c(C(F)(F)F)cc4c(N5CC6CCC(C5)N6)nc(OC[C@@H]5CC(=O)N5)nc4c3F)c12"
  IC50: "1 to 10 µM"
- Compound Smiles: "N#Cc1c(N)sc2c(F)ccc(-c3c(C(F)(F)F)cc4c(N5CC6CCC(C5)N6)nc(N5CCNC(=O)CC5)nc4c3F)c12"
  IC50: "1 to 10 µM"

// moving on: another record for IC50
Exercise: Which IC50 is reported for this compound? N#Cc1c(N)sc2c(F)ccc(-c3c(C(F)(F)F)cc4c(N5CC6CCC(C5)N6)nc(N5CC(O)C5)nc4c3F)c12
Key: 1 to 10 µM

====

biological target: Avi-KRAS G12V (1-169) GppNHp/RAF1 RBD-3×FLAG (52-151) (Homo sapiens, UniProt P01116, G12V); construct: 50 nM Avi-KRAS G12V (1-169) GppNHp/RAF1 RBD-3×FLAG (52-151); assay: Disrupting RAS-effector binding HTRF assay, Raf1 RBD-KRAS G12V-GppNHp; conditions: PPI HTRF, 50 nM Avi-KRAS G12V GppNHp, compound titration 30-0.0045 μM; read-out: Raf1 RBD-KRAS G12V-GppNHp disruption
Sequence (P01116 1-169 isoform P01116-2 G12V limits assumed): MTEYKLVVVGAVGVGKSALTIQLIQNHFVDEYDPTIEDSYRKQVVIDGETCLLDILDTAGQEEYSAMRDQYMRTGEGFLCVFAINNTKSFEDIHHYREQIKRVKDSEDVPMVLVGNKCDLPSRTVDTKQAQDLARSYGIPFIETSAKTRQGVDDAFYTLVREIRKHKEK
Entries and their measured IC50 follow.

Check out these entries, answers already filled in.
- Molecule: "N#Cc1c(N)sc2c(F)ccc(-c3c(C(F)(F)F)cc4c(N5CC6CCC(C5)N6)nc(OCC5CCS(=O)(=O)CC5)nc4c3F)c12 [Compound 53]"
  Result: "1 to 10 µM"
- Molecule: "N#Cc1c(N)sc2c(F)ccc(-c3c(C(F)(F)F)cc4c(N5C[C@H]6CC[C@@H](C5)N6)ncnc4c3F)c12 [Compound 5]"
  Result: "> 10 µM"
- Molecule: "N#Cc1c(N)sc2c(F)ccc(-c3c(C(F)(F)F)cc4c(N5CC6CCC(C5)N6)nc(OCC5CCCOC5)nc4c3F)c12 (stereo not drawn) [Compound 48]"
  Result: "> 10 µM"
- Molecule: "CC(=O)N(C)c1nc(N2C[C@H]3CC[C@@H](C2)N3)c2cc(C(F)(F)F)c(-c3ccc(F)c4sc(N)c(C#N)c34)c(F)c2n1 [Compound 21]"
  Result: "> 10 µM"
- Molecule: "N#Cc1c(N)sc2c(F)ccc(-c3c(C(F)(F)F)cc4c(N5CC6CCC(C5)N6)nc(N5CCCC5)nc4c3F)c12 [Compound 20]"
  Result: "> 10 µM"

// moving on: another record for IC50
Exercise: Which IC50 is reported for this molecule? N#Cc1c(N)sc2c(F)ccc(-c3c(C(F)(F)F)cc4c(N5CC6CCC(C5)N6)nc(OCCC5CCCO5)nc4c3F)c12 (stereo not drawn) [Compound 51]
Key: > 10 µM

====

Entries and their measured IC50 follow.
target: Avi-KRAS WT (1-169) GppNHp/RAF1 RBD-3×FLAG (52-151) (Homo sapiens); construct: 50 nM Avi-KRAS WT (1-169) GppNHp/RAF1 RBD-3×FLAG (52-151); assay: Disrupting RAS-effector binding HTRF assay, Raf1 RBD-KRAS WT-GppNHp; conditions: PPI HTRF, 50 nM Avi-KRAS WT GppNHp, compound titration 30-0.0045 μM; read-out: Raf1 RBD-KRAS WT-GppNHp disruption
Sequence (P01116 1-169 isoform P01116-2 limits assumed): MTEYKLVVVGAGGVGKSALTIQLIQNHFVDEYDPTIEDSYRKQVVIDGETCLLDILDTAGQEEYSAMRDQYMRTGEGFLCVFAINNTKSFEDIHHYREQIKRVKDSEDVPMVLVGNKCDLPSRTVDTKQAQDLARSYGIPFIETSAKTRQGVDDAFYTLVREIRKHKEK

Check out these entries, answers already filled in.
- Compound: "CN(c1nc(OCC2CCOCC2)nc2c(F)c(-c3ccc(F)c4sc(N)c(C#N)c34)c(C(F)(F)F)cc12)C1CCNCC1 [Compound 61]"
  IC50: "> 10 µM"
- Compound: "CN(c1ncnc2c(F)c(-c3ccc(F)c4sc(N)c(C#N)c34)c(C(F)(F)F)cc12)[C@@H]1CCNC1 [Compound 58]"
  IC50: "> 10 µM"
- Compound: "N#Cc1c(N)sc2c(F)ccc(-c3c(C(F)(F)F)cc4c(N5CC6CCC(C5)N6)nc(N5CC[C@H](O)C5)nc4c3F)c12 [Compound 4]"
  IC50: "1 to 10 µM"
- Compound: "N#Cc1c(N)sc2c(F)ccc(-c3c(C(F)(F)F)cc4c(N5CC6CCC(C5)N6)nc(N5CC(O)C5)nc4c3F)c12 [Compound 16]"
  IC50: "1 to 10 µM"
- Compound: "N#Cc1c(N)sc2c(F)ccc(-c3c(C(F)(F)F)cc4c(N5CC6CCC(C5)N6)nc(N5CCNS(=O)(=O)CC5)nc4c3F)c12 [Compound 26]"
  IC50: "1 to 10 µM"

// moving on: another record for IC50
Exercise: Which IC50 is reported for this compound? CN1CCC(COc2nc(N3CC4CCC(C3)N4)c3cc(C(F)(F)F)c(-c4ccc(F)c5sc(N)c(C#N)c45)c(F)c3n2)C1=O (stereo not drawn) [Compound 55]
Key: 0.1 to 1 µM

====

target: Avi-KRAS G12V (1-169) GppNHp/RAF1 RBD-3×FLAG (52-151) (Homo sapiens, UniProt P01116, G12V); construct: 50 nM Avi-KRAS G12V (1-169) GppNHp/RAF1 RBD-3×FLAG (52-151); experiment: Disrupting RAS-effector binding HTRF assay, Raf1 RBD-KRAS G12V-GppNHp; conditions: PPI HTRF, 50 nM Avi-KRAS G12V GppNHp, compound titration 30-0.0045 μM; read-out: Raf1 RBD-KRAS G12V-GppNHp disruption
Measure: IC50

- Molecule: "CC(C)Oc1nc(N2CC3CCC(C2)N3)c2cc(C(F)(F)F)c(-c3ccc(F)c4sc(N)c(C#N)c34)c(F)c2n1 [Compound 8]"
  IC50: "> 10 µM"

Exercise: Look up IC50 with Avi-KRAS G12V (1-169) GppNHp/RAF1 RBD-3×FLAG (52-151) (Homo sapiens, UniProt P01116, G12V) for this molecule: N#Cc1c(N)sc2c(F)ccc(-c3c(C(F)(F)F)cc4c(N5CC6CCC(C5)N6)nc(OCC5(CO)CC5)nc4c3F)c12 [Compound 18]
Key: 1 to 10 µM

Exercise: Same lookup for COCCCOc1nc(N2CC3CCC(C2)N3)c2cc(C(F)(F)F)c(-c3ccc(F)c4sc(N)c(C#N)c34)c(F)c2n1 [Compound 36] , please.
Key: > 10 µM

Exercise: Same lookup for N#CCCOc1nc(N2CC3CCC(C2)N3)c2cc(C(F)(F)F)c(-c3ccc(F)c4sc(N)c(C#N)c34)c(F)c2n1 [Compound 44] , please.
Key: > 10 µM

====

Test system: KRAS G12V protein/effector signaling in SW620 cells
Test: Cell-based pERK HTRF assay in SW620 cell
Details: Homo sapiens, SW-620, 1 h incubation
Protocol: pERK assay (Perkin Elmer) was used to determine the effectiveness of compounds in disrupting KRAS G12V protein/effector signaling in cells. […] Samples were homogenized by pipetting up and down and then transferred (16 μL of cell lysates) from the 96-well cell culture plate to two wells of the HTRF 384-well detection plate containing the antibody solution. […] Therefore, readings could be made between 4 and 24 h of incubation. […]
pIC50: −log10 of the molar value.
Measure: pIC50

Check out these entries, answers already filled in.
- Compound: "N#Cc1c(N)sc2c(F)ccc(-c3c(C(F)(F)F)cc4c(N5CC6CCC(C5)N6)nc(OCC5CCCCO5)nc4c3F)c12 (centres unmarked)"
  Target Under Test: "KRAS G12V protein/effector signaling in SW620 cells"
  Result: "< 5.00"
- Compound: "N#Cc1c(N)sc2c(F)ccc(-c3c(C(F)(F)F)cc4c(N5CC6CCC(C5)N6)nc(O[C@@H]5CCOC5)nc4c3F)c12"
  Target Under Test: "KRAS G12V protein/effector signaling in SW620 cells"
  Result: "< 5.00"
- Compound: "N#Cc1c(N)sc2c(F)ccc(-c3c(C(F)(F)F)cc4c(N5CC6CCC(C5)N6)nc(OCC5CCOC5)nc4c3F)c12 (centres unmarked)"
  Target Under Test: "KRAS G12V protein/effector signaling in SW620 cells"
  Result: "< 5.00"
- Compound: "N#Cc1c(N)sc2c(F)ccc(-c3c(C(F)(F)F)cc4c(N5CC6CCC(C5)N6)nc(OC[C@@H]5COCCO5)nc4c3F)c12"
  Target Under Test: "KRAS G12V protein/effector signaling in SW620 cells"
  Result: "< 5.00"

// moving on: another record for pIC50
Exercise: Which pIC50 is reported for this compound? CN1CCC(COc2nc(N3CC4CCC(C3)N4)c3cc(C(F)(F)F)c(-c4ccc(F)c5sc(N)c(C#N)c45)c(F)c3n2)C1=O (centres unmarked)
Key: < 5.00
